ASSAY: Inhibition of HDAC1-CoREST-LSD1 (unknown origin) using Boc- (Ac)Lys-AMC as substrate preincubated for 1 hr followed by substrate addition and measured after 1 hr by fluorescent assay
Set-up: species or system Homo sapiens
METRIC: IC50 (µM)
Respond with the bare value in µM.

Request: # IC50 lookup, item CC(=O)NC(C(=O)N1C[C@H](O)C[C@H]1C(=O)NCc1ccc(-c2scnc2C)cc1OCCCCCCCCCCCC(=O)Nc1ccc(C(=O)Nc2ccccc2N)cc1)C(C)(C)C (single isomer, unassigned)
Response: 1.51

====

TARGET OF ASSAY: von Hippel-Lindau disease tumor suppressor/Histone deacetylase 1 (Homo sapiens, UniProt Q13547+P40337)
Sequence (P40337 whole entry, looked up): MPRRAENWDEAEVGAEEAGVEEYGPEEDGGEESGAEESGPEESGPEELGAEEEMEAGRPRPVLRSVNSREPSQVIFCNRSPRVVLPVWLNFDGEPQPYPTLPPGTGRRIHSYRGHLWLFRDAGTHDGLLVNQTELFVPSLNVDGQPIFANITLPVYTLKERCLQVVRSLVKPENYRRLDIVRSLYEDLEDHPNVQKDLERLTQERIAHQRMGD
Sequence (Q13547 whole entry, looked up): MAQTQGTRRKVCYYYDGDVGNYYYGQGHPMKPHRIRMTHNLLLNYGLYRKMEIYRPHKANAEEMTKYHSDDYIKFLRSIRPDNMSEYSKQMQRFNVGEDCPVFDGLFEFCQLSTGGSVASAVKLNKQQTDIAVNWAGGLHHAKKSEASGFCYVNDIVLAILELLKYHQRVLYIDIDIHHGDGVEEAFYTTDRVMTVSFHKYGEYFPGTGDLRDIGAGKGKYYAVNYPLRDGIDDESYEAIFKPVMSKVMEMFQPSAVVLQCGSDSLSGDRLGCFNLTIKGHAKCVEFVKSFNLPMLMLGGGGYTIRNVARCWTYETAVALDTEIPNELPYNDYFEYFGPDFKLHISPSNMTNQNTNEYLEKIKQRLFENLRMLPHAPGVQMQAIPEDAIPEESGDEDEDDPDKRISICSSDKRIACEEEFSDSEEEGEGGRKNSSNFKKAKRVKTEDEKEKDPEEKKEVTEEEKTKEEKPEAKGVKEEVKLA
ASSAY: Protac activity at VHL/HDAC1 in human HCT-116 cells assessed as induction of HDAC1 degradation at 1 to 10 uM incubated for 24 hrs by Western blot analysis
Type: cell-based
ASSAY SETUP: dose 1-10 µM
Activity calls are given as the source filed them. The rule behind the calls is not given here.
Pick from active, inactive when you respond.

Sample answers from the record:
MOLECULE	ASSIGNED CLASS
Cc1ncsc1-c1ccc(CNC(=O)[C@@H]2C[C@@H](O)CN2C(=O)[C@@H](NC(=O)CCCCCCCCCCCCC(=O)Nc2ccc(C(=O)Nc3ccccc3N)cc2)C(C)(C)C)cc1	active
Cc1ncsc1-c1ccc(CNC(=O)[C@@H]2C[C@@H](O)CN2C(=O)[C@@H](NC(=O)CCCCCCCCC(=O)Nc2ccc(C(=O)Nc3ccccc3N)cc2)C(C)(C)C)cc1	active
Cc1ncsc1-c1ccc(CNC(=O)[C@@H]2C[C@@H](O)CN2C(=O)[C@@H](NC(=O)COCCOCCOCC(=O)Nc2ccc(C(=O)Nc3ccccc3N)cc2)C(C)(C)C)cc1	inactive

Request: How did this test come out for CC(=O)NC(C(=O)N1C[C@H](O)C[C@H]1C(=O)NCc1ccc(-c2scnc2C)cc1OCCCCNC(=O)CCCCCCCC(=O)Nc1ccc(C(=O)Nc2ccccc2N)cc1)C(C)(C)C (single isomer, unassigned) ?
Response: active

Request: How did this test come out for Cc1ncsc1-c1ccc(CNC(=O)[C@@H]2C[C@@H](O)CN2C(=O)[C@@H](NC(=O)CCCCCCCCCCC(=O)Nc2ccc(C(=O)Nc3cc(-c4cccs4)ccc3N)cc2)C(C)(C)C)cc1 ?
Response: inactive

Request: How did this test come out for Cc1ncsc1-c1ccc(CNC(=O)[C@@H]2CC(O)CN2C(=O)[C@@H](NC(=O)COCCOCCOCCOCC(=O)Nc2ccc(C(=O)Nc3ccccc3N)cc2)C(C)(C)C)cc1 (single isomer, unassigned) ?
Response: inactive

Request: How did this test come out for Cc1ncsc1-c1ccc(CNC(=O)[C@@H]2C[C@@H](O)CN2C(=O)[C@@H](NC(=O)COCCOCCOCC(=O)Nc2ccc(C(=O)Nc3cc(-c4cccs4)ccc3N)cc2)C(C)(C)C)cc1 ?
Response: inactive

Request: How did this test come out for Cc1ncsc1-c1ccc(CNC(=O)[C@@H]2C[C@@H](O)CN2C(=O)[C@@H](NC(=O)CCCN2CCN(CCCC(=O)Nc3ccc(C(=O)Nc4ccccc4N)cc3)CC2)C(C)(C)C)cc1 ?
Response: inactive
